Origin of the recorded values: patent US20130196971A1

Lab note: IC50 readings collected with FAS (Homo sapiens) for the following compounds.
Sequence (P49327 whole entry): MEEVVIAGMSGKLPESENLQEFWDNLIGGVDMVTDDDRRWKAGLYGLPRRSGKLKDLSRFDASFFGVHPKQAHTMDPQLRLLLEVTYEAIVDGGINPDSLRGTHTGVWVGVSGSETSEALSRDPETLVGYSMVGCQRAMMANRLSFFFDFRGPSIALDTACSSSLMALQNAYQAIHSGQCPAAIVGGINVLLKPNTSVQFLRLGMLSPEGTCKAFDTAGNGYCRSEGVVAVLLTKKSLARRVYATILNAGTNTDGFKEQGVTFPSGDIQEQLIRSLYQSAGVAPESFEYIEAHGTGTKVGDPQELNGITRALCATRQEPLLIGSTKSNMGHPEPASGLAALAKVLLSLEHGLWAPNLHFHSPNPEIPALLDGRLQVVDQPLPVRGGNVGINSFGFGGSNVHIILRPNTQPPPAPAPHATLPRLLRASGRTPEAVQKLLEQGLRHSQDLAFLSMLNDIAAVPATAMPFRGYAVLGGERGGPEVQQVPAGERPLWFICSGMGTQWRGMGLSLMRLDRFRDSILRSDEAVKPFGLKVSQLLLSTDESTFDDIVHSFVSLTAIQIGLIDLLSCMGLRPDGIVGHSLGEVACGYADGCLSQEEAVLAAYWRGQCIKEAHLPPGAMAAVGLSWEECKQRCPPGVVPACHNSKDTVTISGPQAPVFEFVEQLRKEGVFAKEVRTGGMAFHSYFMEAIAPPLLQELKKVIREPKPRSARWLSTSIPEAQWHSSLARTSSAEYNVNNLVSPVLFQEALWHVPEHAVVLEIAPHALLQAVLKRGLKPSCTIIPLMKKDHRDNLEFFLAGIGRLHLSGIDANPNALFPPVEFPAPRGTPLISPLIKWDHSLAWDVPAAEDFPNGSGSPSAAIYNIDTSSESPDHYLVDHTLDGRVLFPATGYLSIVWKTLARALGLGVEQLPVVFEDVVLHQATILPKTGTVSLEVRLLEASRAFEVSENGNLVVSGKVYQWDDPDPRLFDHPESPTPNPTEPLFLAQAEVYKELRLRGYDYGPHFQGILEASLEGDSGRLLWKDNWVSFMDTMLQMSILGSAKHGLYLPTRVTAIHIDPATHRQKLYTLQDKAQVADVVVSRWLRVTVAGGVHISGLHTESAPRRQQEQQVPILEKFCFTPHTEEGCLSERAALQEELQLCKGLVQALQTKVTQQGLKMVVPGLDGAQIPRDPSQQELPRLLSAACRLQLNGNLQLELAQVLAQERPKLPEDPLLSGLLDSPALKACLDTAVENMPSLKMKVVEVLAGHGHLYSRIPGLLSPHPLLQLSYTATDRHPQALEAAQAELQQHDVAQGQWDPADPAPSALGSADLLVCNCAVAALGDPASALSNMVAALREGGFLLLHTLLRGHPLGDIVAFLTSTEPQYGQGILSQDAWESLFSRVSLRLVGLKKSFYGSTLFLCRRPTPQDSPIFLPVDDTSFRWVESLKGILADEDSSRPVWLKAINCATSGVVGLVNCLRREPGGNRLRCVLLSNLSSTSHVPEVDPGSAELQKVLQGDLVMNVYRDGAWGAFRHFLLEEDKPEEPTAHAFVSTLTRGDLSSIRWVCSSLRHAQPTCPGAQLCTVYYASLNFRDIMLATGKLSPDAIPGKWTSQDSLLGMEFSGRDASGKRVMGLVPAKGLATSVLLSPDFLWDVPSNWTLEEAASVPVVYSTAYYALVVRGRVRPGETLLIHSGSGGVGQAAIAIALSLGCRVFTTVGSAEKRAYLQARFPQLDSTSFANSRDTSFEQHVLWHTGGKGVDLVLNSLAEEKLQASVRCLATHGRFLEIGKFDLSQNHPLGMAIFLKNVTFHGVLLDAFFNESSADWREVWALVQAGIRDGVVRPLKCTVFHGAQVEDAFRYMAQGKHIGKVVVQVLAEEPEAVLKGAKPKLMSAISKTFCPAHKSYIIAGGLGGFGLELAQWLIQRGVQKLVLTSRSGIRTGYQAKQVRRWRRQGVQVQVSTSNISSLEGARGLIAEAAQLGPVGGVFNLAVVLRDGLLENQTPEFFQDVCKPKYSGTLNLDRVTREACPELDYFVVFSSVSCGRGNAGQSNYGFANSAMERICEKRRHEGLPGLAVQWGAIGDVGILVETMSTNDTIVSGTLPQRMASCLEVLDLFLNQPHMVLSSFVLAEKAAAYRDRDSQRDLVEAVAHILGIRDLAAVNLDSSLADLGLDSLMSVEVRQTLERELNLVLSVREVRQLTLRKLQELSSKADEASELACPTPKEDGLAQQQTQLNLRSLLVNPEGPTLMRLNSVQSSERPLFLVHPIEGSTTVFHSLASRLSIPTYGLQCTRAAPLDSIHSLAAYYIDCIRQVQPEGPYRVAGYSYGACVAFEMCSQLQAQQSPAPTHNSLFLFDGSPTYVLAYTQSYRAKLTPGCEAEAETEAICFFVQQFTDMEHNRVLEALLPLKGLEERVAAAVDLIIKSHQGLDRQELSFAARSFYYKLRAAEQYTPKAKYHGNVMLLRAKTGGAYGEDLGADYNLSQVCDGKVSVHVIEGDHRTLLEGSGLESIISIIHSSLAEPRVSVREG
measurement_name: IC50 (nM)

A. O=C(C1CC1)N1CC[C@@H](Cn2cnnc2-c2ccc(-c3cccc4[nH]ncc34)cc2)C1 [Example 67]
B. O=C(C1CC1)N1CC(Cn2cnnc2-c2ccc(-c3ccc4ncccc4c3)cc2F)C1 [Example 96]
Which value of IC50 is greater, the one for A or the one for B ? Please respond with the label that marks your chosen entry. B

I. O=C(C1CC1)N1CC[C@@H](Cn2nncc2-c2ccc(-c3ccc4[nH]ncc4c3)cc2)C1 [Example 11]
II. Cc1cnc(-c2ccc(-c3ccc(Cl)cc3Cl)cc2)n1CC1CCN(C(=O)C2CC2)C1 (stereo not drawn) [Example 54]
Could you tell me which of I and II has the lower IC50 reading? When you have decided, please share the label of that item. I

a. O=C(C1CC1)N1CC[C@@H](Cn2ccnc2-c2ccc(-c3ccc4occc4c3)cc2)C1 [Example 34]
b. Cc1nnc(-c2ccc(-c3ccc(Cl)cc3Cl)cc2)n1C[C@@H]1CCN(C(=O)C2CC2)C1 [Example 15]
Which gives the smaller IC50 number: a or b ? Write down the label attached to your selection. a
